- assayed system: DNA repair nuclease/redox regulator APEX1 (Homo sapiens) (UniProt P27695)
- Sequence (P27695 whole entry, looked up): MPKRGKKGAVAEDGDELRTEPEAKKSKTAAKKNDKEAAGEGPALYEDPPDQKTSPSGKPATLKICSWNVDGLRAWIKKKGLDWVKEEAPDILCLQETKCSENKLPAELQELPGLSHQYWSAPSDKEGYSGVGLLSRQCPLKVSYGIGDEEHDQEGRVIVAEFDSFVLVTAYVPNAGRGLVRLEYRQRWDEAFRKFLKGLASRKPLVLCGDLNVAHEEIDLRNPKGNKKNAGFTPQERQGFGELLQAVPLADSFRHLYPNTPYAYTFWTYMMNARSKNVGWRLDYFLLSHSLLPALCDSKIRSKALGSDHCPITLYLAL
- test description: qHTS Validation Assay for Inhibitors of the Human Apurinic/apyrimidinic Endonuclease 1 (APE1) (AID 1705)
- particulars: purified APE1 endonuclease activity, fluorescence, titration; series mostly up to 57.1 µM
Records with an inconclusive call do not appear. Calls of active or inactive are those of the source. Calls follow the shape of the dose curve; as a rule, active = well fitted inhibition curve with a large enough effect; inconclusive = small, poorly fitted or top-dose-only effect; inactive = flat fitted curve, though single readings scatter.
Respond with a class label; see y = active, n = inactive

CC1CNCCN1S(=O)(=O)c1cccc2cnccc12 (centres undefined) : n
COc1ccccc1N1CCN(CCCCN2C(=O)c3ccccc3C2=O)CC1 : n
O=C(O)C1=CCCN(CCON=C(c2ccccc2)c2ccccc2)C1 : n
CCCCC[C@H](CC(=O)NO)C(=O)N[C@H](C(=O)N1CCC[C@H]1CO)C(C)C : n

Field: outcome | Entry: CCCc1c(OCCCOc2ccc(OCC(=O)O)cc2)ccc(C(C)=O)c1O
n

Field: outcome | Entry: NC(=O)c1ccccc1
n

Field: outcome | Entry: COc1cccc(OC)c1OCCNCC1CSc2ccccc2O1 (centres undefined)
n

Field: outcome | Entry: Cn1c(=O)c2c(nc(/C=C/c3cccc(Cl)c3)n2C)n(C)c1=O
n

Field: outcome | Entry: O=C(O)Cc1ccc(O)c(O)c1
y

Field: outcome | Entry: CSC(N)=NCCC[C@H](N)C(=O)O
n

All figures here come from PubChem BioAssay (NCATS).
